Fold improvement in Emax over BCY10000 on same plate values, listed per item
molecular target: CD137 (UniProt Q07011 24-255, limits assumed); assay: cell-based or functional assay
Sequence (Q07011 24-255 limits assumed): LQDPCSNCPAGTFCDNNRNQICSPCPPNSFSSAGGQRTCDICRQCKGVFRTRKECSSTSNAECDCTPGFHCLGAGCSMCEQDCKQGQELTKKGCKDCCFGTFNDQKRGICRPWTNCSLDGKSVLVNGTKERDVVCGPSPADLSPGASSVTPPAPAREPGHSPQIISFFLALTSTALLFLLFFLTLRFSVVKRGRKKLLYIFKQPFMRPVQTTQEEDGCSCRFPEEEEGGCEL
*1 amine or outer side, *2 acyl side, *3 side chain or, on linkers, in order; H or OH if unused. Bridges are numbered along the chain shown (N, C = ends). Roman numbers before positions name the chains, in order. Where no end group is shown, it is not given here. [ ]: non-standard residue; d: D form. The star is where a group is joined. TATA = O=C(CC[*:1])N1CN(C(=O)CC[*:2])CN(C(=O)CC[*:3])C1; 1Nal = N[C@@H](Cc1cccc2ccccc12)C(=O)O; Hyp = O=C(O)[C@@H]1C[C@@H](O)CN1; hArg = N=C(N)NCCCC[C@H](N)C(=O)O; tBuAla = CC(C)(C)C[C@H](N)C(=O)O; Cysteamide = C(CS[*:3])N[*:1]; Nle = CCCC[C@H](N)C(=O)O; Pent4ynoyl = C#CCCC(=O)*; dNMeA = CN[C@H](C)C(=O)O; Mpa = O=C(O)CCS
Experimental endpoint: Fold improvement in Emax over BCY10000 on same plate (fold)

# Binder, Unit symbol, Numeric readout
records = [
    ("BCY12710 (linker I:1-I:5-I:15, II:1-II:8-II:15 via TATA; not fully specified (bridges); also: chain 1 N-terminus joined to chain 2 dLys(PYA) by Peg5 linker (heterotandem complex)) peptide 1: CP[1Nal][dD]CM[hArg]DWSTP[Hyp]WC peptide 2: Ac-C[tBuAla]PE[dK](Pent4ynoyl)PYCFAD[dNMeA]Y[Nle]C", "fold", 1.41),
    ("BCY12574 (linker I:1-I:5-I:15 via TATA; numbers in words are those of the source; also: two bicycles joined by Peg5 linker, linker at chain B 7 to a chain's N/C-terminus via TATA) peptide 1: CP[1Nal][dD]CM[hArg]DWSTP[Hyp]WC peptide 2: [Mpa][tBuAla]PE[dK](Pent4ynoyl)PYCFADPY[Nle]-Cysteamide", "fold", 0.77),
    ("BCY12572 ([Ac]C[tBuAla]PE[dK(PYA)]PYCFADPY[Nle][Cysteamine]; reactive groups bonded to TATA scaffold; CP[1Nal][dD]CM[HArg]DWSTP[HyP]WC; Cys residues bonded to TATA scaffold) peptide 1: CPXDCMXDWSTPXWC peptide 2: CXPEKPYCFADPYX", "fold", 1.67),
    ("BCY12585 (linker I:1-I:5-I:15, II:1-II:8-II:15 via TATA; not fully specified (bridges); printed as CP[1Nal][dE]CM[HArg]EWSTP[HyP]WC / Ac-C[tBuAla]PE[D-Lys(PYA)]PYCFADPY[Nle]CA; also: chain 1 N-terminus joined to chain 2 dLys(PYA) by Peg5 linker (heterotandem complex)) peptide 1: CP[1Nal][dE]CM[hArg]EWSTP[Hyp]WC peptide 2: Ac-C[tBuAla]PE[dK](Pent4ynoyl)PYCFADPY[Nle]CA", "fold", 1.5),
    ("BCY12573 (linker I:1-I:5-I:15 via TATA; numbers in words are those of the source; also: two bicycles joined by Peg5 linker, linker at chain B 7 at chain B 14 to a chain's N-terminus via TATA) peptide 1: CP[1Nal][dD]CM[hArg]DWSTP[Hyp]WC peptide 2: [Mpa][tBuAla]PE[dK](Pent4ynoyl)PYCFADPY[Nle]C", "fold", 1.34),
    ("BCY12579 (Ac-C[tBuAla]PE[D-Lys(PYA)]PYCFADPY[Nle]CA; Cys residues bonded to TATA scaffold; [Ac]CP[1Nal][dK]CM[HArg]HWSTP[HyP]WC; Cys residues bonded to TATA scaffold) peptide 1: CPXKCMXHWSTPXWC peptide 2: CXPEXPYCFADPYXCA", "fold", 1.07),
    ("BCY12576 (Ac-C[tBuAla]PE[D-Lys(PYA)]PYCFADPY[Nle]CA; Cys residues bonded to TATA scaffold; [3-mercaptopropionic acid]P[1Nal][dK]CM[HArg]DWSTP[HyP]WC; reactive groups bonded to TATA scaffold) peptide 1: XXKCMXDWSTPXWC peptide 2: CXPEXPYCFADPYXCA", "fold", 1.45),
    ("BCY11616 (Ac-ACIEE(D-K)(PYA)QYCFADPY(Nle)CA; Cys residues bonded to TATA scaffold; CP[1Nal][dD]CM[HArg]DWSTP[HyP]WC; Cys residues bonded to TATA scaffold) peptide 1: CPXDCMXDWSTPXWC peptide 2: ACIEEKQYCFADPYXCA", "fold", 1.22),
]
